test: Metabolic stability in human hepatic microsome; format: in vitro ADME; conditions: human, liver microsomes, pH 7.4, human hepatic microsome, NADPH(+); read-out: CL NADPH(+)
Positions of bridges follow the written chain, without caps; N, C: chain ends. Non-standard residues stand in square brackets, D forms with d. Residues, ends and D or L forms follow the SMILES beside them. *: point of attachment. NMeF = CN[C@@H](Cc1ccccc1)C(=O)O; NMeI = CC[C@H](C)[C@H](NC)C(=O)O; NMeL = CN[C@@H](CC(C)C)C(=O)O; NMeA = CN[C@@H](C)C(=O)O; Piperidide = C1CCN(*)CC1
property_measured: microsomal CLint at 1 uM

molecule="CC[C@H](C)[C@H]1C(=O)N[C@@H](CC(C)C)C(=O)N(C)[C@@H](C)C(=O)N(C)[C@@H](Cc2ccccc2)C(=O)NCC(=O)N[C@@H]([C@@H](C)O)C(=O)N[C@@H](Cc2ccccc2)C(=O)N(C)[C@@H](CC(C)C)C(=O)N2CCC[C@H]2C(=O)N[C@H](C(=O)N2CCCCC2)CC(=O)N[C@H](C(C)C)C(=O)N[C@@H](CC(C)C)C(=O)N1C [DP-218] ([dV]L[NMeI]L[NMeA][NMeF]GTF[NMeL]PD-Piperidide; lactam N-12)" property_measured="microsomal CLint at 1 uM" recorded_measurement="18 µL/min/mg"
